Below, each entry is listed with its recorded activity at 20 µM.
Biological target: full-length tau (T40; htau40 isoform) / truncated tau (12-kDa fragment) in 3T6 fibroblast cells (Homo sapiens)
Construct: fibroblast cells (3T6) express full-length tau; PHF-core tau fragment (12-kDa fragment); expressed in transfected cells; host or cells: 3T6 fibroblast cells
Assay: cellular tau aggregation inhibition assay (truncated 12-kDa tau / full-length T40 band ratio on immunoblots)
Format: cell-based
Details: single concentration test; tested at 20 μM; vs untreated cells; ~1.0 negative, <0.5 positive inhibitor; read-out: Truncated tau/T40 ratio (n = 3)
Experimental: A cell-based tau aggregation assay was performed as described previously. The process is described in more detail in WO 02/055720. […] Indeed, the quantitation of inhibitory activity of compounds with respect to proteolytic generation of the 12-kDa fragment within cells can be described entirely in terms of the same parameters which describe inhibition of tau-tau binding in vitro. […] The inhibitory ratio (IR) is calculated by the equation: […]

smiles.input	display.unit	activity at 20 µM
O=C(NCc1cc(-c2ccccc2)[nH]n1)c1csc(NS(=O)(=O)c2c[nH]c3ccccc23)n1	%	132
O=C(NCc1nc2cc(Cl)ccc2[nH]1)c1csc(NS(=O)(=O)CCO)n1	%	101
Cn1cccc1CNC(=O)c1csc(NS(=O)(=O)CF)n1	%	62.8
O=C(NCc1cc(-c2ccccc2)[nH]n1)c1csc(NS(=O)(=O)CCO)n1	%	112
O=C(NCc1nc2cc(Cl)ccc2[nH]1)c1csc(NS(=O)(=O)c2c[nH]c3ccccc23)n1	%	91.1

* * *

assay: toxicity in cells (lactate dehydrogenase assay, 24 hrs); type: cell-based; details: mouse, 3t6 fibroblasts; concentration at which 50% of cells are killed; 24 hrs exposure; read-out: LD50
quantity: CC50 at 24 h (µM)

compound	quantity	val
O=C(NCc1cc(-c2ccccc2)[nH]n1)c1csc(NS(=O)(=O)c2c[nH]c3ccccc23)n1 [Compound 26]	CC50 at 24 h	188
O=C(NCc1ccc[nH]1)c1csc(NS(=O)(=O)CF)n1 [Compound 15]	CC50 at 24 h	221
CN(c1nc(C(=O)NCc2cc(-c3ccccc3)[nH]n2)cs1)S(C)(=O)=O [Compound 9]	CC50 at 24 h	80.1
CNS(=O)(=O)Nc1nc(C(=O)NCCC(C)(C)C)cs1 [Compound 24]	CC50 at 24 h	235
O=C(NCc1cc(-c2ccccc2)[nH]n1)c1csc(NS(=O)(=O)CF)n1 [Compound 19]	CC50 at 24 h	231
O=C(NCc1nc2ccc(Cl)cc2[nH]1)c1csc(NS(=O)(=O)CF)n1 [Compound 18]	CC50 at 24 h	225
O=C(NCc1nc2cc(Cl)ccc2[nH]1)c1csc(NS(=O)(=O)CCO)n1 [Compound 12]	CC50 at 24 h	197

* * *

assay: toxicity in cells (lactate dehydrogenase assay, 24 hrs); assay type: cell-based; conditions: mouse, 3t6 fibroblasts; concentration at which 50% of cells are killed; 24 hrs exposure; read-out: LD50

smiles.input	CC50 at 24 h
CN(c1nc(C(=O)NCc2cccn2C)cs1)S(C)(=O)=O	204 µM
O=C(NCc1cc(-c2ccccc2)[nH]n1)c1csc(NS(=O)(=O)CCO)n1	197 µM
Cn1cccc1CNC(=O)c1csc(NS(=O)(=O)CCO)n1	222 µM
CC(C)(C)CCNC(=O)c1csc(NS(=O)(=O)CCO)n1	263 µM
CC(C)(C)CCNC(=O)c1csc(NS(=O)(=O)CF)n1	186 µM
Cn1cccc1CNC(=O)c1csc(NS(=O)(=O)CF)n1	236 µM
CS(=O)(=O)Nc1nc(C(=O)NCc2nc3cc(Cl)ccc3[nH]2)cs1	264 µM
CS(=O)(=O)Nc1nc(C(=O)NCc2cc(-c3ccccc3)[nH]n2)cs1	252 µM
CNS(=O)(=O)Nc1nc(C(=O)NCc2nc3cc(Cl)ccc3[nH]2)cs1	228 µM
CS(=O)(=O)Nc1nc(C(=O)NCc2ccc[nH]2)cs1	247 µM
CC(C)(C)CCNC(=O)c1csc(NS(C)(=O)=O)n1	217 µM
O=C(NCc1cc2ccccc2[nH]1)c1csc(NS(=O)(=O)CF)n1	228 µM
CNS(=O)(=O)Nc1nc(C(=O)NCc2cc3ccccc3[nH]2)cs1	227 µM
Cn1cccc1CNC(=O)c1csc(NS(C)(=O)=O)n1	253 µM
CNS(=O)(=O)Nc1nc(C(=O)NCc2cc(-c3ccccc3)[nH]n2)cs1	226 µM
CN(c1nc(C(=O)NCCC(C)(C)C)cs1)S(C)(=O)=O	191 µM
O=C(NCc1nc2cc(Cl)ccc2[nH]1)c1csc(NS(=O)(=O)c2c[nH]c3ccccc23)n1	202 µM
CS(=O)(=O)Nc1nc(C(=O)NCc2cc3ccccc3[nH]2)cs1	212 µM
CN(c1nc(C(=O)NCc2ccc[nH]2)cs1)S(C)(=O)=O	216 µM

* * *

target: truncated tau (residues 297-390; dGA) / dGAE (residues 297-391), tau-tau binding (Homo sapiens); construct: truncated tau (residues 297-390; dGA); another truncated tau species (residues 297-391; dGAE); experiment: in vitro cell-free tau-tau binding assay (B50); settings: concentration required to inhibit tau-tau binding by 50%
Sequence (P10636 614-708): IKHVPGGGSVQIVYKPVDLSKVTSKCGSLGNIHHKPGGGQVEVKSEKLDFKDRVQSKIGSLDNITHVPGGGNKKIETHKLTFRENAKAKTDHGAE

compound	result.modifier	IC50 (µM)
O=C(NCc1nc2cc(Cl)ccc2[nH]1)c1csc(NS(=O)(=O)c2c[nH]c3ccccc23)n1 [Compound 25]	=	612
CN(c1nc(C(=O)NCc2cc(-c3ccccc3)[nH]n2)cs1)S(C)(=O)=O [Compound 9]	>	500
O=C(NCc1cc(-c2ccccc2)[nH]n1)c1csc(NS(=O)(=O)c2c[nH]c3ccccc23)n1 [Compound 26]	=	616

* * *

target: full-length tau (T40; htau40 isoform) / truncated tau (12-kDa fragment) in 3T6 fibroblast cells (Homo sapiens, UniProt P10636); construct: fibroblast cells (3T6) express full-length tau; PHF-core tau fragment (12-kDa fragment); expressed in transfected cells; host or cells: 3T6 fibroblast cells; experiment: cellular tau aggregation inhibition assay (truncated 12-kDa tau / full-length T40 band ratio on immunoblots); assay type: cell-based; settings: single concentration test; vs untreated cells; ~1.0 negative, <0.5 positive inhibitor, >2.0 aggregation enhanced; read-out: Truncated tau/T40 ratio (n = 3)
Sequence (P10636 1-441 isoform P10636-8): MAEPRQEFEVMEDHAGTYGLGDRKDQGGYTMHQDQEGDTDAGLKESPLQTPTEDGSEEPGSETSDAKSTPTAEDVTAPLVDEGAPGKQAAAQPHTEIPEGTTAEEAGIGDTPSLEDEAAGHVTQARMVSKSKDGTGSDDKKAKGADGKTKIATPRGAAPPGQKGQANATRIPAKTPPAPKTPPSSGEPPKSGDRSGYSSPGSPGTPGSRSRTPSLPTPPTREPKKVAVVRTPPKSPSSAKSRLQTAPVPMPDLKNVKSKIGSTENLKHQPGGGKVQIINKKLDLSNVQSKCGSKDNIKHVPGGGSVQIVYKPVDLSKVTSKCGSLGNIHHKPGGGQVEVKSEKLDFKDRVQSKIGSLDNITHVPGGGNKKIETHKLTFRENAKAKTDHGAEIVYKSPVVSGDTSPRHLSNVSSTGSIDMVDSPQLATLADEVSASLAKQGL

smiles.input	display.unit	activity at 2 µM
Cn1cccc1CNC(=O)c1csc(NS(=O)(=O)CCO)n1	%	91.7
CNS(=O)(=O)Nc1nc(C(=O)NCCC(C)(C)C)cs1	%	349
CC(C)(C)CCNC(=O)c1csc(NS(C)(=O)=O)n1	%	88.8
CN(c1nc(C(=O)NCCC(C)(C)C)cs1)S(C)(=O)=O	%	49.6
CS(=O)(=O)Nc1nc(C(=O)NCc2ccc[nH]2)cs1	%	501
O=C(NCc1ccc[nH]1)c1csc(NS(=O)(=O)CF)n1	%	120
CC(C)(C)CCNC(=O)c1csc(NS(=O)(=O)CF)n1	%	80.3
CS(=O)(=O)Nc1nc(C(=O)NCc2cc(-c3ccccc3)[nH]n2)cs1	%	72.7
CN(c1nc(C(=O)NCc2cccn2C)cs1)S(C)(=O)=O	%	7.8
CS(=O)(=O)Nc1nc(C(=O)NCc2cc3ccccc3[nH]2)cs1	%	228
CS(=O)(=O)Nc1nc(C(=O)NCc2nc3cc(Cl)ccc3[nH]2)cs1	%	480
Cn1cccc1CNC(=O)c1csc(NS(C)(=O)=O)n1	%	86.4
O=C(NCc1cc(-c2ccccc2)[nH]n1)c1csc(NS(=O)(=O)CF)n1	%	197
CNS(=O)(=O)Nc1nc(C(=O)NCc2cc(-c3ccccc3)[nH]n2)cs1	%	98.5
CNS(=O)(=O)Nc1nc(C(=O)NCc2cc3ccccc3[nH]2)cs1	%	217
CN(c1nc(C(=O)NCc2ccc[nH]2)cs1)S(C)(=O)=O	%	44.4
CNS(=O)(=O)Nc1nc(C(=O)NCc2nc3cc(Cl)ccc3[nH]2)cs1	%	136
O=C(NCc1nc2ccc(Cl)cc2[nH]1)c1csc(NS(=O)(=O)CF)n1	%	14.1

* * *

Biological target: full-length tau (T40; htau40 isoform) / truncated tau (12-kDa fragment) in 3T6 fibroblast cells (Homo sapiens)
Construct: fibroblast cells (3T6) express full-length tau; PHF-core tau fragment (12-kDa fragment); expressed in transfected cells; host or cells: 3T6 fibroblast cells
Experiment: cellular tau aggregation inhibition assay (truncated 12-kDa tau / full-length T40 band ratio on immunoblots)
Assay type: cell-based
Details: full assay; concentration at which truncated tau:full-length tau ratio is 50% of that without TAI; mean for replicates; NE = no effect; read-out: EC50
Protocol: A cell-based tau aggregation assay was performed as described previously. The process is described in more detail in WO 02/055720. […] Indeed, the quantitation of inhibitory activity of compounds with respect to proteolytic generation of the 12-kDa fragment within cells can be described entirely in terms of the same parameters which describe inhibition of tau-tau binding in vitro. […] The inhibitory ratio (IR) is calculated by the equation: […]
pEC50: −log10 of the molar value.
Below, each entry is listed with its recorded pEC50.
quantity: pEC50

compound	quantity	val
CN(c1nc(C(=O)NCCC(C)(C)C)cs1)S(C)(=O)=O [Compound 10]	pEC50	4.54
CC(C)(C)CCNC(=O)c1csc(NS(=O)(=O)CCO)n1 [Compound 14]	pEC50	5.43
CN(c1nc(C(=O)NCc2cc(-c3ccccc3)[nH]n2)cs1)S(C)(=O)=O [Compound 9]	pEC50	5.32
